- tested_on: Bone morphogenetic protein 1 (Homo sapiens)
- Sequence (P13497 whole entry, the tested form may be a part): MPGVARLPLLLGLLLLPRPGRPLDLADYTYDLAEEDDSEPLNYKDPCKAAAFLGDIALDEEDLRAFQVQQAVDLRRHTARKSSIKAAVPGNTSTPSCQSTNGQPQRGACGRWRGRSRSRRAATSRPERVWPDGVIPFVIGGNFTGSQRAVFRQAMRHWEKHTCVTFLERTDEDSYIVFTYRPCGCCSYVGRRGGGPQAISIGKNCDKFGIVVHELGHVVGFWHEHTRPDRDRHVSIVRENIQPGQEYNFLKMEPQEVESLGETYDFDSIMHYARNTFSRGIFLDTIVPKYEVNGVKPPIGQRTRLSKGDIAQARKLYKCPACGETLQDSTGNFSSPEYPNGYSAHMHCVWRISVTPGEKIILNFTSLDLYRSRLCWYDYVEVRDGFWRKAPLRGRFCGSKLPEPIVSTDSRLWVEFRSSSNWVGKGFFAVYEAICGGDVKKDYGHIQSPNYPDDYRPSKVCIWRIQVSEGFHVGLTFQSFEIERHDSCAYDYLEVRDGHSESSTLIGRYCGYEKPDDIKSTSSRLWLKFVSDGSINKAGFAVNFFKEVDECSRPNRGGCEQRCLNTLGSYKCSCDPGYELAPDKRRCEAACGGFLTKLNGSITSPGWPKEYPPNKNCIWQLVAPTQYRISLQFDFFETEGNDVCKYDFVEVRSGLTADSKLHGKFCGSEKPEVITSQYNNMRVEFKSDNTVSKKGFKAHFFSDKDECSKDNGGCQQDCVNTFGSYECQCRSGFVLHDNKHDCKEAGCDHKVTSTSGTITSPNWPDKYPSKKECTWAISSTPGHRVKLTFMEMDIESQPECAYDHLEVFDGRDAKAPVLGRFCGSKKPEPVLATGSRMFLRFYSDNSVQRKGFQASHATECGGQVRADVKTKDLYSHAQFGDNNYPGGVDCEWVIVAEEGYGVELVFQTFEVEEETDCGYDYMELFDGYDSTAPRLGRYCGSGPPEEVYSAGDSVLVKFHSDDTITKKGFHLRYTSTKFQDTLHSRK
- experiment_description: Inhibition of C-terminal FLAG-6x-His epitope tagged and N-terminal human RAGE signal sequence tagged human BMP1 (23 to 721 amino acids) expressed in CHO-E1 cells pre-incubated for 10 mins before promyostatin peptide substrate addition and measured after 60 mins using 0.5 nM BMP1 by FRET based assay
- Format: cell-based
What IC50 was measured for each of the following?

State recorded IC50 with Bone morphogenetic protein 1 (Homo sapiens), entry "CCCCC[C@H](CN(O)C=O)C(=O)NCNC(=O)c1ccc(-c2cccc([N+](=O)[O-])c2)o1" , no comment.
< 126 nM

State recorded IC50 with Bone morphogenetic protein 1 (Homo sapiens), entry "CCCCC[C@@H](C(=O)NCNC(=O)c1ccc(-c2cc(OCC(=O)O)cc(C(=O)N[C@@H](CC(=O)O)C(=O)O)c2)o1)[C@@H](CC)N(O)C=O" , no comment.
< 126 nM

State recorded IC50 with Bone morphogenetic protein 1 (Homo sapiens), entry "CCCCC[C@H](CN(O)C=O)C(=O)NCNC(=O)c1ccc(-c2cccc(OC)n2)o1" , no comment.
< 126 nM

State recorded IC50 with Bone morphogenetic protein 1 (Homo sapiens), entry "CCCCC[C@H](CN(O)C=O)C(=O)NCNC(=O)c1ccc(-c2cncc(OC)c2)o1" , no comment.
< 126 nM

State recorded IC50 with Bone morphogenetic protein 1 (Homo sapiens), entry "CCCCC[C@@H](C(=O)NCNC(=O)c1ccc(-c2ccc(C(=O)NCP(=O)(O)O)c(C)c2)o1)[C@@H](CC)N(O)C=O" , no comment.
< 126 nM

State recorded IC50 with Bone morphogenetic protein 1 (Homo sapiens), entry "CCOc1cc(-c2ccc(C(=O)NCNC(=O)[C@H](CCc3ccccc3)[C@@H](CC)N(O)C=O)o2)ccc1C(=O)N[C@@H](CC(=O)O)C(=O)O" , no comment.
< 126 nM

State recorded IC50 with Bone morphogenetic protein 1 (Homo sapiens), entry "CCCCC[C@H](CN(O)C=O)C(=O)NCNC(=O)c1ccc(-c2cccc(S(N)(=O)=O)c2)o1" , no comment.
< 126 nM

State recorded IC50 with Bone morphogenetic protein 1 (Homo sapiens), entry "CCCCC[C@H](CN(O)C=O)C(=O)NCNC(=O)c1ccc(-c2cc(OC)cc(C(=O)NCCN)c2)o1" , no comment.
< 126 nM

State recorded IC50 with Bone morphogenetic protein 1 (Homo sapiens), entry "CCCCC[C@H](CN(O)C=O)C(=O)NCNC(=O)c1ccc(-c2cccc(OC(F)(F)F)c2)o1" , no comment.
< 126 nM

State recorded IC50 with Bone morphogenetic protein 1 (Homo sapiens), entry "CCCCC[C@@H](C(=O)NCNC(=O)c1ccc(-c2cc(OCCC)cc(C(=O)O)c2)o1)[C@@H](CC)N(O)C=O" , no comment.
< 126 nM

State recorded IC50 with Bone morphogenetic protein 1 (Homo sapiens), entry "CCCCC[C@H](CN(O)C=O)C(=O)NCNC(=O)c1ccc(-c2cccc(C(=O)NC)c2)o1" , no comment.
< 126 nM

State recorded IC50 with Bone morphogenetic protein 1 (Homo sapiens), entry "CCCCC[C@@H](C(=O)NCNC(=O)c1ccc(-c2ccc(C(=O)NCP(=O)(O)O)c(OCC)c2)o1)[C@@H](CC)N(O)C=O" , no comment.
< 126 nM

State recorded IC50 with Bone morphogenetic protein 1 (Homo sapiens), entry "CCCCC[C@@H](C(=O)NCNC(=O)c1ccc(-c2cncc(C(=O)O)c2)o1)[C@@H](CC)N(O)C=O" , no comment.
< 126 nM

State recorded IC50 with Bone morphogenetic protein 1 (Homo sapiens), entry "CCOc1cc(-c2ccc(C(=O)NCNC(=O)[C@H](CCc3ccc(F)cc3F)[C@@H](CC)N(O)C=O)o2)ccc1C(=O)N[C@@H](CC(=O)O)C(=O)O" , no comment.
< 126 nM

State recorded IC50 with Bone morphogenetic protein 1 (Homo sapiens), entry "CCCCC[C@H](CN(O)C=O)C(=O)NCNC(=O)c1ccc(-c2cccc(C(=O)O)c2OC)o1" , no comment.
< 126 nM

State recorded IC50 with Bone morphogenetic protein 1 (Homo sapiens), entry "CCCCC[C@H](CN(O)C=O)C(=O)NCNC(=O)c1ccc(-c2cc(OC)ccn2)o1" , no comment.
< 126 nM

* * *

- tested_on: Bone morphogenetic protein 1 (Homo sapiens)
- experiment_description: Inhibition of C-terminal FLAG-6x-His epitope tagged and N-terminal human RAGE signal sequence tagged human BMP1 (23 to 721 amino acids) expressed in CHO-E1 cells pre-incubated for 10 mins before promyostatin peptide substrate addition and measured after 60 mins using 0.5 nM BMP1 by FRET based assay
- Format: cell-based
pIC50: −log10 of the molar value.
What pIC50 was measured for each of the following?

Give pIC50 for "CCCCC[C@@H](C(=O)NCNC(=O)c1ccc(-c2cc(O)cc(OCC)c2)o1)[C@@H](CC)N(O)C=O"
> 6.90

Give pIC50 for "CCCCC[C@@H](C(=O)NCNC(=O)c1ccc(-c2cccc(C(C)(C)C(=O)O)c2)o1)[C@@H](CC)N(O)C=O"
> 6.90

Give pIC50 for "CCCCC[C@@H](C(=O)NCNC(=O)c1ccc(-c2cc(OCC)cc(P(=O)(O)OC)c2)o1)[C@@H](CC)N(O)C=O"
> 6.90

Give pIC50 for "CCCCC[C@H](CN(O)C=O)C(=O)NCNC(=O)c1ccc(-c2cccc(CC(=O)O)c2)o1"
> 6.90

Give pIC50 for "CCCCC[C@@H](C(=O)NCNC(=O)c1ccc(-c2cc(OCC)cc(C(=O)N[C@@H](CCC(=O)O)C(=O)O)c2)o1)[C@@H](CC)N(O)C=O"
> 6.90

Give pIC50 for "CCCCC[C@H](CN(O)C=O)C(=O)NCNC(=O)c1ccc(-c2cccc(C(=O)O)c2F)o1"
> 6.90

Give pIC50 for "CCCCC[C@H](CN(O)C=O)C(=O)NCNC(=O)c1ccc(-c2ccc3cnn(C)c3c2)o1"
> 6.90

Give pIC50 for "CCCCC[C@H](CN(O)C=O)C(=O)NCNC(=O)c1ccc(-c2ccc(C#N)cc2)o1"
> 6.90

Give pIC50 for "CCCCC[C@H](CN(O)C=O)C(=O)NCNC(=O)c1ccc(-c2ccccc2OC)o1"
> 6.90

Give pIC50 for "CCCCC[C@@H](C(=O)NCNC(=O)c1ccc(-c2cc(CP(=O)(O)O)cc(OCC)c2)o1)[C@@H](CC)N(O)C=O"
> 6.90

Give pIC50 for "CCCCC[C@H](CN(O)C=O)C(=O)NCNC(=O)c1ccc(-c2ccc(C(=O)OC)cc2)o1"
> 6.90

Give pIC50 for "CCCCC[C@H](CN(O)C=O)C(=O)NCNC(=O)c1ccc(-c2cccc(S(=O)(=O)N(C)C)c2)o1"
> 6.90

Give pIC50 for "CCCCC[C@@H](C(=O)NCNC(=O)c1ccc(-c2cc(OCC)cc(C(=O)N[C@@H](CC(=O)O)C(=O)OC(C)(C)C)c2)o1)[C@@H](CC)N(O)C=O"
> 6.90

Give pIC50 for "CCCCC[C@@H](C(=O)NCNC(=O)c1ccc(-c2ccc(CC(=O)N[C@@H](CC(=O)O)C(=O)O)c(OCC)c2)o1)[C@@H](CC)N(O)C=O"
> 6.90

Give pIC50 for "CCCCC[C@@H](C(=O)NCNC(=O)c1ccc(-c2cc(O)c(C(=O)O)c(OCC)c2)o1)[C@@H](CC)N(O)C=O"
> 6.90

Give pIC50 for "CCCCC[C@@H](C(=O)NCNC(=O)c1ccc(-c2cccc(/C(N)=N/O)c2)o1)[C@@H](CC)N(O)C=O"
> 6.90

Give pIC50 for "CC[C@H]([C@@H](CCc1ccc(F)cc1F)C(=O)NCNC(=O)c1ccc(-c2cc(OCC(=O)O)cc(C(=O)O)c2O)o1)N(O)C=O"
> 6.90

Give pIC50 for "CCCCC[C@@H](C(=O)NCNC(=O)c1ccc(-c2cc(O)cc(C(=O)O)c2)o1)[C@@H](CC)N(O)C=O"
> 6.90

Give pIC50 for "CCCCC[C@H](CN(O)C=O)C(=O)NCNC(=O)c1ccc(-c2cccc(OC(C)C)c2)o1"
> 6.90

Give pIC50 for "CCCCC[C@@H](C(=O)NCNC(=O)c1ccc(-c2cc(OCC)cc(C(=O)N[C@@H](CC(=O)O)C(=O)O)c2)o1)[C@@H](CC)N(O)C=O"
> 6.90

Give pIC50 for "CCCCC[C@H](CN(O)C=O)C(=O)NCNC(=O)c1ccc(-c2cccc(P(=O)(O)OC)c2)o1"
> 6.90

Give pIC50 for "CCCCC[C@@H](C(=O)NCNC(=O)c1ccc(-c2ccc(C(=O)NCP(=O)(O)O)cc2)o1)[C@@H](CC)N(O)C=O"
> 6.90

Give pIC50 for "CCCCC[C@H](CN(O)C=O)C(=O)NCNC(=O)c1ccc(-c2ccccc2C(=O)O)o1"
> 6.90

Give pIC50 for "CCCCC[C@H](CN(O)C=O)C(=O)NCNC(=O)c1ccc(-c2cccc(OC)c2)o1"
> 6.90

Give pIC50 for "CCCCC[C@H](CN(O)C=O)C(=O)NCNC(=O)c1ccc(-c2ccc3cn(C)nc3c2)o1"
> 6.90

Give pIC50 for "CCCCC[C@@H](C(=O)NCNC(=O)c1ccc(-c2cc(OCC(N)=O)cc(C(=O)O)c2)o1)[C@@H](CC)N(O)C=O"
> 6.90

Give pIC50 for "CCCCC[C@H](CN(O)C=O)C(=O)NCNC(=O)c1ccc(-c2ccc(F)c(C(=O)O)c2F)o1"
> 6.90

Give pIC50 for "CCCCC[C@H](CN(O)C=O)C(=O)NCNC(=O)c1ccc(-c2cc(OCC)cc(C(=O)O)c2)o1"
> 6.90

Give pIC50 for "CCCCC[C@@H](C(=O)NCNC(=O)c1ccc(-c2cc(OCC)cc(C(F)(F)C(=O)O)c2)o1)[C@@H](CC)N(O)C=O"
> 6.90

Give pIC50 for "CCCCC[C@@H](C(=O)NCNC(=O)c1ccc(-c2ccc(C(=O)O)c(CC(=O)O)c2)o1)[C@@H](CC)N(O)C=O"
> 6.90

Give pIC50 for "CCCCC[C@@H](C(=O)NCNC(=O)c1ccc(-c2ccc(C(=O)N[C@@H](CC(=O)O)C(=O)O)c(C)c2)o1)[C@@H](CC)N(O)C=O"
> 6.90
